So I've got a bunch of compounds here, and I need their melting point values.

Reported melting point for COc1ccc(CC(=O)N2CCN(Cc3ccc(F)cc3)CC2)cc1 : what is it?
234 to 238 °C

Please do the same for O=C(Cc1ccccc1[N+](=O)[O-])N1CCN(Cc2ccc(F)cc2)CC1 as well.
88 to 90 °C

Please do the same for COc1ccc(C(=O)N2CCN(Cc3ccc(F)cc3)CC2)c([N+](=O)[O-])c1 as well.
133 to 134 °C

###

measure_name: melting point

Reported melting point for O=C(c1cccc(Cl)c1[N+](=O)[O-])N1CCN(Cc2ccc(F)cc2)CC1 [Compound 26] : what is it?
91 to 92 °C

Please do the same for O=C(Cc1cccc(Br)c1)N1CCN(Cc2ccc(F)cc2)CC1 [Compound 14] as well.
240 to 242 °C

Please do the same for O=C(Cc1cccc([N+](=O)[O-])c1)N1CCN(Cc2ccc(F)cc2)CC1 [Compound 17] as well.
83 to 84 °C

Please do the same for O=C(Cc1ccccc1Cl)N1CCN(Cc2ccc(F)cc2)CC1 [Compound 10] as well.
100 to 102 °C

Please do the same for O=C(Cc1ccc(Cl)cc1)N1CCN(Cc2ccc(F)cc2)CC1 [Compound 12] as well.
120 to 122 °C

Please do the same for O=C(c1cc(Cl)ccc1[N+](=O)[O-])N1CCN(Cc2ccc(F)cc2)CC1 [Compound 28] as well.
130 to 131 °C

Please do the same for O=C(c1ccc(Cl)cc1[N+](=O)[O-])N1CCN(Cc2ccc(F)cc2)CC1 [Compound 27] as well.
141 to 142 °C

Please do the same for O=C(Cc1ccc([N+](=O)[O-])cc1)N1CCN(Cc2ccc(F)cc2)CC1 [Compound 18] as well.
98 to 100 °C

Please do the same for COc1ccc([N+](=O)[O-])c(C(=O)N2CCN(Cc3ccc(F)cc3)CC2)c1 [Compound 32] as well.
151 to 152 °C
